experimental details: total protein half-life in vivo (active degradation + dilution); higher = more stable protein
experimental conditions: wild type E. coli NCM3722; growth: N-lim chemostat; doubling time 6 h
The following sequences are listed with their measured total protein half-life in vivo values.
quantity kind: total protein half-life in vivo (h)

macromolecule_sequence=MQCALYDAGRCRSCQWIMQPIPEQLSAKTADLKNLLADFPVEEWCAPVSGPEQGFRNKAKMVVSGSVEKPLLGMLHRDGTPEDLCDCPLYPASFAPVFAALKPFIARAGLTPYNVARKRGELKYILLTESQSDGGMMLRFVLRSDTKLAQLRKALPWLHEQLPQLKVITVNIQPVHMAIMEGETEIYLTEQQALAERFNDVPLWIRPQSFFQTNPAVASQLYATARDWVRQLPVKHMWDLFCGVGGFGLHCATPDMQLTGIEIASEAIACAKQSAAELGLTRLQFQALDSTQFATAQGDVPELVLVNPPRRGIGKPLCDYLSTMAPRFIIYSSCNAQTMAKDIRELPGFRIERVQLFDMFPHTAHYEVLTLLVKQ quantity_kind="total protein half-life in vivo" unit_abbrev=h observed_measurement=5.51
macromolecule_sequence=MPLHNLTRFPRLEFIGAPTPLEYLPRFSDYLGREIFIKRDDVTPMAMGGNKLRKLEFLAADALREGADTLITAGAIQSNHVRQTAAVAAKLGLHCVALLENPIGTTAENYLTNGNRLLLDLFNTQIEMCDALTDPNAQLEELATRVEAQGFRPYVIPVGGSNALGALGYVESALEIAQQCEGAVNISSVVVASGSAGTHAGLAVGLEHLMPESELIGVTVSRSVADQLPKVVNLQQAIAKELELTASAEILLWDDYFAPGYGVPNDEGMEAVKLLARLEGILLDPVYTGKAMAGLIDGISQKRFKDEGPILFIHTGGAPALFAYHPHV quantity_kind="total protein half-life in vivo" unit_abbrev=h observed_measurement=5.78

Values were extracted from the supplement of paper PMC11246515.
